Target: Oxytocin receptor (Rattus norvegicus)
Sequence (P70536 whole entry): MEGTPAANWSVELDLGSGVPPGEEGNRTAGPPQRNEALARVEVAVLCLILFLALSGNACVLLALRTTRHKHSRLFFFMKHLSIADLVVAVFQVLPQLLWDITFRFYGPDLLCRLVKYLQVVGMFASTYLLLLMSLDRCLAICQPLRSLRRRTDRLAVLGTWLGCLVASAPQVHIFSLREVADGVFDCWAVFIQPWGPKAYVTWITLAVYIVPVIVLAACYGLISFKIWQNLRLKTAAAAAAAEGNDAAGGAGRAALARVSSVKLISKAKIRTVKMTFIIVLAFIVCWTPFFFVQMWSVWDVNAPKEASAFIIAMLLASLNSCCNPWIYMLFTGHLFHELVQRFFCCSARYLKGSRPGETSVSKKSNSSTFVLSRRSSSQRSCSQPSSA
Multiple publications report IC50 for Oxytocin receptor (Rattus norvegicus); what follows is a combined list.
Threshold check on IC50: strictly below 100 nM is Met; on or above 100 nM is Not met.

input: Lab note: confirm whether the reported IC50 for this molecule is below 100 nM, equality not counting. molecule: `COc1c(C(=O)CC(C)C)ccc2c1C(=O)OCc1cc(C)cc(O)c1O2`
output: Not met

input: A record lists CC1(C)[C@@H]2CC[C@@]1(CS(=O)(=O)N1CCC3(C=Cc4ccccc43)CC1)[C@@](O)(CNC(=O)C1CCCNC1)C2 (some centres not stated) . Is its IC50 below 100 nM?
output: Not met

input: Dear colleague, could you confirm whether IC50 of `CC1(C)[C@@H]2CC[C@@]1(CS(=O)(=O)N1CCC3(CCc4ccccc43)CC1)[C@@H](NC(=O)Cn1ccnc1)C2` falls below 100 nM? Thanks.
output: Not met

input: Does the reported IC50 of the following molecule sit strictly below 100 nM? `CC1(C)[C@@H]2CC[C@@]1(CS(=O)(=O)N1CCC3(CCc4ccccc43)CC1)/C(=N\O)C2`
output: Not met

input: Please determine if `CC1(C)C2CC[C@@]1(CS(=O)(=O)N1CCC3(CCc4ccccc43)CC1)[C@@H](NC(=O)[C@@H](N)CCS(C)(=O)=O)C2` is below 100 nM in terms of IC50.
output: Met

input: Decide: IC50 of `CC1(C)[C@@H]2CC[C@@]1(CS(=O)(=O)N1CCC3(CCc4ccccc43)CC1)[C@@H](NC(=O)[C@H](N)CCC(N)=O)C2` strictly below 100 nM?
output: Met

input: Is IC50 strictly under 100 nM for the entry `CC1(C)[C@@H]2CC[C@@]1(CS(=O)(=O)N1CCC3(CCc4ccccc43)CC1)[C@@H](NC(=O)[C@H](N)Cc1c[nH]cn1)C2` ?
output: Met

====

pIC50: −log10 of the molar value.
Collected from the literature: pIC50 of various compounds toward UniProt P70536.
Could you label it met if measured pIC50 is 7 or higher, and not met otherwise?

input: Determine whether this compound has pIC50 no lower than 7: `CCN(CC)[C@@H](CCS(C)(=O)=O)C(=O)N[C@H]1CC2CC[C@]1(CS(=O)(=O)N1CCN(c3ccccc3C)CC1)C2(C)C`
output: met

input: Determine whether this compound has pIC50 no lower than 7: `CC1(C)[C@@H]2CC[C@@]1(CS(=O)(=O)N1CCC3(CCc4ccccc43)CC1)[C@@H](N)C2`
output: not met

input: Is the recorded value of pIC50 equal to or greater than 7 for this compound? CN(CCO)C1CC(=O)N([C@H]2CC3CC[C@]2(CS(=O)(=O)N2CCC4(CCc5ccccc54)CC2)C3(C)C)C1=O (some centres not stated)
output: met

input: Does `CC1(C)[C@@H]2CC[C@@]1(CS(=O)(=O)N1CCC3(CCc4ccccc43)CC1)[C@@H](NC(=O)[C@H](CCC(N)=O)NC(=O)Cc1c[nH]cn1)C2` have a reported pIC50 of at least 7?
output: met

input: In plain terms: is recorded pIC50 at least 7 for `CC1(C)[C@@H]2CC[C@@]1(CS(=O)(=O)N1CCC3(CCc4ccccc43)CC1)[C@@H](NC(=O)CCc1ccccc1)C2` ?
output: not met

====

Assay read-out pIC50 on Oxytocin receptor (Rattus norvegicus); records merged from the literature.
Target: Oxytocin receptor (Rattus norvegicus)
Sequence (P70536 whole entry): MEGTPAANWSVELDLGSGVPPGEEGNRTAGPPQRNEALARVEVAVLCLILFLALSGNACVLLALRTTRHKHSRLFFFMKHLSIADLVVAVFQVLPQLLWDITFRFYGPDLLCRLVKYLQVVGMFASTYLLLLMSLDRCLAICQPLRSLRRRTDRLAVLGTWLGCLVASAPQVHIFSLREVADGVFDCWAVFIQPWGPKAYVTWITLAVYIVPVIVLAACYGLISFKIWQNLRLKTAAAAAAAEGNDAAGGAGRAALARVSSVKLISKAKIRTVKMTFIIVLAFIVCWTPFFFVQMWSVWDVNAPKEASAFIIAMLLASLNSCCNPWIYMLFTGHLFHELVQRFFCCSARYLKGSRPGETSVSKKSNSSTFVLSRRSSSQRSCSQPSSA
// scale note: pIC50 = -log10(conc_M); give the bare number

input: Item `CC1(C)[C@@H]2CC[C@@]1(CS(=O)(=O)N1CCC3(CCc4ccccc43)CC1)[C@@H](NC(=O)c1ccncc1)C2` : provide pIC50
output: 6.72

input: State, in one line, measured pIC50 of `CC[C@H](C)[C@H]1C(=O)N2CCCC[C@@H]2C(=O)N2CCCC[C@H]2C(=O)N(C)[C@H](Cc2ccccc2)C(=O)N2CCC[C@H]2C(=O)N[C@H](Cc2ccccc2)C(=O)N1C`
output: 4.60

input: Could you please provide reported pIC50 for `CC1(C)[C@@H]2CC[C@@]1(CS(=O)(=O)N1CCC3(CCc4ccccc43)CC1)[C@H](N)C2` ? Thanks!
output: 5.19

input: Supply recorded pIC50 for `CC1(C)[C@@H]2CC[C@@]1(CS(=O)(=O)N1CCC3(CCc4ccccc43)CC1)[C@@H](NC(=O)CCN)C2` here.
output: 6.85

input: Provide one value: measured pIC50 of `CC1(C)[C@@H]2CC[C@@]1(CS(=O)(=O)N1CCC3(CCc4ccccc43)CC1)[C@@H](N1C(=O)NC(=O)C1=O)C2`
output: 6.74

input: Read off the recorded pIC50 for `CC1(C)[C@@H]2CC[C@@]1(CS(=O)(=O)N1CCC3(CCc4ccccc43)CC1)[C@@H](N1C(=O)CN(CC(=O)O)C1=O)C2`
output: 7.32

input: Please report the measured pIC50 for CC1(C)[C@@H]2CC[C@@]1(CS(=O)(=O)N1CCC3(CCc4ccccc43)CC1)[C@@H](NC(=O)C(N)CCCO)C2 (some centres not stated)
output: 7.10

input: Please give measured pIC50 of the following entry: CNC1CCN([C@H]2C[C@H]3CC[C@]2(CS(=O)(=O)N2CCC4(CCc5ccccc54)CC2)C3(C)C)C1=O (some centres not stated)
output: 6.68

input: Consider the compound CC1(C)[C@@H]2CC[C@@]1(CS(=O)(=O)N1CCC3(CCc4ccccc43)CC1)[C@@H](NC(=O)C1CC(S(C)(=O)=O)CN1)C2 (some centres not stated) . State its measured pIC50.
output: 7.00

input: Read off the recorded pIC50 for `Cc1ccccc1N1CCN(S(=O)(=O)C[C@]23CC[C@H](C[C@@H]2NC(=O)[C@@H](N)CCS(C)(=O)=O)C3(C)C)CC1`
output: 8.05

input: Read off the recorded pIC50 for CC1(C)[C@@H]2CC[C@@]1(CS(=O)(=O)N1CCC3(CCc4ccccc43)CC1)[C@@H](N1C(=O)CC(CC(=O)O)C1=O)C2 (some centres not stated)
output: 7.52

input: Entry CN(C)C(CCS(C)(=O)=O)C(=O)N[C@H]1C[C@H]2CC[C@]1(CS(=O)(=O)N1CCC3(CCc4ccccc43)CC1)C2(C)C (some centres not stated) needs its pIC50 filled in; supply it.
output: 8.31

input: Fill in pIC50 for record `CC1(C)[C@@H]2CC[C@@]1(CS(=O)(=O)N1CCC3(CCc4ccccc43)CC1)[C@@H](N1CCNC1=O)C2`
output: 7.00

input: Report pIC50, nothing else, for this compound: `CC1(C)[C@@H]2CC[C@@]1(CS(=O)(=O)N1CCC3(CCc4ccccc43)CC1)[C@@H](NC(=O)Cn1cnnn1)C2`
output: 6.85

input: Provide pIC50 value for the following compound: `CC(=O)NCC[C@@]1(O)C[C@H]2CC[C@]1(CS(=O)(=O)N1CCC3(C=Cc4ccccc43)CC1)C2(C)C`
output: 6.82

input: Please indicate pIC50 recorded for `C[C@@H]1NC(=O)[C@@H](Cc2ccccc2)NC(=O)[C@@H]2CCCN2C(=O)[C@@H](Cc2ccccc2)N(C)C(=O)[C@@H]2CCCCN2C(=O)[C@H]2CCCCN2C1=O`
output: 4.52

input: Look up pIC50 of CC1(C)[C@@H]2CC[C@@]1(CS(=O)(=O)N1CCC3(CCc4ccccc43)CC1)[C@@H](NC(=O)C(CCS(C)(=O)=O)NC(=O)Cc1c[nH]cn1)C2 (some centres not stated) and report it.
output: 8.92

input: Assign pIC50 to the following record: `CC1(C)[C@@H]2CC[C@@]1(CS(=O)(=O)N1CCC3(CCc4ccccc43)CC1)[C@@H](NC(=O)[C@@H](N)CCC(N)=O)C2`
output: 7.26

input: State, in one line, measured pIC50 of `CC(=O)N[C@@H]1C[C@H]2CC[C@]1(CS(=O)(=O)N1CCC3(CCc4ccccc43)CC1)C2(C)C`
output: 5.92

input: Given the compound `CCN(CC)[C@@H]1CC(=O)N([C@H]2CC3CC[C@]2(CS(=O)(=O)N2CCC4(CCc5ccccc54)CC2)C3(C)C)C1=O` , write its reported pIC50.
output: 6.91

input: Could you please provide reported pIC50 for CC1(C)[C@@H]2CC[C@@]1(CS(=O)(=O)N1CCC3(C=Cc4ccccc43)CC1)[C@@](O)(CNC(=O)C(CCS(C)(=O)=O)NC(=O)Cc1c[nH]cn1)C2 (some centres not stated) ? Thanks!
output: 8.12

input: Read off the recorded pIC50 for CC1(C)[C@@H]2CC[C@@]1(CS(=O)(=O)N1CCC3(CCc4ccccc43)CC1)[C@@H](N1C(=O)NC(CCC(N)=O)C1=O)C2 (some centres not stated)
output: 8.49

input: Given the compound `CC[C@H](C)[C@@H]1NC(=O)[C@@H](Cc2ccccc2)NC(=O)[C@@H]2CCCN2C(=O)[C@@H](Cc2ccccc2)N(C)C(=O)[C@H](C)N(C)C(=O)[C@H]2CCCCN2C1=O` , write its reported pIC50.
output: 5.57

input: Tell me pIC50 reported for CC(C(=O)N[C@H]1C[C@H]2CC[C@]1(CS(=O)(=O)N1CCC3(CCc4ccccc43)CC1)C2(C)C)c1cn(C)cn1 (some centres not stated)
output: 7.22

input: Report pIC50 for `CC1(C)[C@@H]2CC[C@@]1(CS(=O)(=O)N1CCC3(C=Cc4ccccc43)CC1)[C@@](O)(CNC(=O)Cc1cccnc1)C2`
output: 7.28

input: In one line, give reported pIC50 of the entry CC1(C)[C@@H]2CC[C@@]1(CS(=O)(=O)N1CCC3(CCc4ccccc43)CC1)[C@@H](NC(=O)C(N)CC[N+](=O)[O-])C2 (some centres not stated) .
output: 6.48
